Tested on: U2OS
PROTOCOL DESCRIPTION: Multiplex assay against U2OS
Type: toxicity, cell-based
SETTINGS: human, 12 h, 10 µM, compound concentration 10 uM, replicate 1
PROPERTY LABEL: Population Hoechst High Intensity Objects (%)

INSERT INTO results (compound, reported_result) VALUES
  ('Cc1ccc2c(c1)c1c(n2CCc2ccc(C)nc2)CCN(C)C1 [LATREPIRDINE]', 7),
  ('CCCSc1nc(N[C@@H]2C[C@H]2c2ccc(F)c(F)c2)c2nnn([C@@H]3C[C@H](OCCO)[C@@H](O)[C@H]3O)c2n1', 7),
  ('Cl.O=C(O)c1cc(-c2ccc(C3CCNCC3)cc2)c2ccc(-c3ccc(C(F)(F)F)cc3)cc2c1', 2),
  ('Cc1nc(N2CC[C@H](O)C2)ncc1-c1cc(C(F)(F)F)cc2[nH]ncc12', 1),
  ('CNC(=O)Nc1ccc2c(c1)[C@@]1(CC2)OC(=O)N(CC(=O)N(Cc2ccc(F)cc2)[C@@H](C)C(F)(F)F)C1=O', 1),
  ('COc1cc(Nc2nccc(-c3cnn4nc(OC)ccc34)n2)cc(C(F)(F)F)c1', 15),
  ('COc1ccccc1CN[C@H]1C2CCN(CC2)[C@H]1C(c1ccccc1)c1ccccc1', 6),
  ('CCc1ccc(OCc2ccccc2C(=O)Nc2ccc3nc(C)cc(N)c3c2)cc1.Cl', 7);

====

Tested on: U2OS
PROTOCOL DESCRIPTION: Multiplex assay against U2OS
Type: toxicity, cell-based
SETTINGS: human, 24 h, 10 µM, compound concentration 10 uM, replicate 2
Reported values of Population Apoptotic (%) for individual entries
PROPERTY LABEL: Population Apoptotic (%)

INSERT INTO measurements (compound, property_label, reported_result) VALUES
  ('CN1CCN(Cc2ccc(Nc3ncc(Cl)c(Nc4ccccc4S(=O)(=O)N(C)C)n3)cc2)CC1', 'Population Apoptotic (%)', '95%'),
  ('C=CC(=O)Nc1ccc2[nH]c(=O)n(C3CCN(Cc4ccc(-c5nc6cc[nH]c(=O)c6cc5-c5ccccc5)cc4)CC3)c2c1', 'Population Apoptotic (%)', '83%'),
  ('CC(C)(C)NC[C@H](O)COc1nsnc1N1CCOCC1', 'Population Apoptotic (%)', '41%'),
  ('COc1ccc(-c2ccc3ncc4c(c3c2)n(-c2ccc(N3CCNCC3)c(C(F)(F)F)c2)c(=O)n4C)cn1.O=C(O)/C=C\C(=O)O', 'Population Apoptotic (%)', '100%'),
  ('COc1cc2ncn(-c3cc(OCc4ccccc4C(F)(F)F)c(C(N)=O)s3)c2cc1OC [GW843682X]', 'Population Apoptotic (%)', '50%'),
  ('CNC(=O)Nc1ccc(-c2nc(N3CC4CCC(C3)O4)c3cnn(C4CCC5(CC4)OCCO5)c3n2)cc1', 'Population Apoptotic (%)', '41%'),
  ('CC(C)c1noc(N2CCC(COc3ccc(-c4ccc(S(C)(=O)=O)cc4)nc3)CC2)n1', 'Population Apoptotic (%)', '36%'),
  ('CCc1ccc(OCc2ccccc2C(=O)Nc2ccc3nc(C)cc(N)c3c2)cc1.Cl', 'Population Apoptotic (%)', '70%');

====

Reported values of Growth Rate for individual entries
Tested on: Fibroblast
PROTOCOL DESCRIPTION: Incucyte cell viability with human fibroblast; further: filed as whole numbers so only -1 and 0 and 1 occur
Type: toxicity, cell-based
SETTINGS: 18 h, 10 µM, compound concentration 10 uM, replicate number 2, timepoint 18 hours
PROPERTY LABEL: Growth Rate

INSERT INTO assay_data (compound, target_system, reported_result) VALUES
  ('COc1ccc(-c2ccc3cc(C(=O)O)ccc3c2)cc1C12CC3CC(CC(C3)C1)C2', 'Fibroblast', 1),
  ('COc1cc(-c2cn([C@H]3CCc4ccccc4N(CC(F)(F)F)C3=O)nn2)ccc1-n1ccc(C)n1', 'Fibroblast', 0),
  ('CO[C@@H](C)c1c(Nc2ccc([C@H](N(C)C(=O)C3CCS(=O)(=O)CC3)C(F)(F)F)cc2)cnc2cc(Cl)nn12', 'Fibroblast', 1),
  ('O=C(c1cc2c(cc1F)OC(c1ccc(F)cc1)(c1ccc(Cl)cc1Cl)O2)N1CCOCC1 (stereo not given)', 'Fibroblast', 0),
  ('O=C(NCC(=O)N1CCCC1)Nc1ccc2cnccc2c1', 'Fibroblast', 1);

====

Tested on: U2OS
PROTOCOL DESCRIPTION: Multiplex assay against U2OS
Format: toxicity, cell-based
SETTINGS: human, 12 h, 1 µM, compound concentration 1 uM, replicate 2
PROPERTY LABEL: Population Healthy Nuclei (%)

INSERT INTO results (compound, property_label, reported_result) VALUES
  ('O=c1cc(N2CCOCC2)oc2c(-c3cccc4c3sc3ccccc34)cccc12', 'Population Healthy Nuclei (%)', '77%'),
  ('CNC(=O)Nc1ccc(-c2nc(N3CC4CCC(C3)O4)c3cnn(C4CCC5(CC4)OCCO5)c3n2)cc1', 'Population Healthy Nuclei (%)', '55%'),
  ('CC(C)Oc1ccccc1C(=O)Nc1ccccc1C(=O)Nc1cccc(S(=O)(=O)C(F)(F)F)c1', 'Population Healthy Nuclei (%)', '74%'),
  ('CC(C)CC(=O)Nc1[nH]nc2c1CN(C(=O)C1CCN(C)CC1)C2(C)C [PHA-793887]', 'Population Healthy Nuclei (%)', '87%'),
  ('CNC(=O)Nc1ccc2c(c1)[C@@]1(CC2)OC(=O)N(CC(=O)N(Cc2ccc(F)cc2)[C@@H](C)C(F)(F)F)C1=O [A-486]', 'Population Healthy Nuclei (%)', '88%'),
  ('O=C(c1cc2c(cc1F)OC(c1ccc(F)cc1)(c1ccc(Cl)cc1Cl)O2)N1CCOCC1 (centres undefined)', 'Population Healthy Nuclei (%)', '68%'),
  ('Cc1c[nH]c2nccc(Oc3c(F)cc(Nc4cc(Cl)nc(N)n4)cc3F)c12 [BAY-549]', 'Population Healthy Nuclei (%)', '73%'),
  ('Cc1nc(N2CC[C@H](O)C2)ncc1-c1cc(C(F)(F)F)cc2[nH]ncc12', 'Population Healthy Nuclei (%)', '89%'),
  ('Cc1cccc(CN2CCN(C(c3ccccc3)c3ccc(Cl)cc3)CC2)c1.Cl.Cl (centres undefined)', 'Population Healthy Nuclei (%)', '79%');

====

System: U2OS
PROTOCOL DESCRIPTION: Multiplex assay against U2OS
Type: toxicity, cell-based
SETTINGS: human, 48 h, 10 µM, compound concentration 10 uM, replicate 1
Mark each entry criterion met if its Population Membrane Permeable-Phenotype (%) sits below 30%, and criterion not met for all others.

INSERT INTO results (compound, class_assignment) VALUES
  ('CCc1ccc(OCc2ccccc2C(=O)Nc2ccc3nc(C)cc(N)c3c2)cc1.Cl', 'criterion not met'),
  ('CC(C)Oc1ccccc1C(=O)Nc1ccccc1C(=O)Nc1cccc(S(=O)(=O)C(F)(F)F)c1', 'criterion not met'),
  ('Cl.O=C(O)c1cc(-c2ccc(C3CCNCC3)cc2)c2ccc(-c3ccc(C(F)(F)F)cc3)cc2c1', 'criterion met'),
  ('COc1cc2ncn(-c3cc(OCc4ccccc4C(F)(F)F)c(C(N)=O)s3)c2cc1OC [GW843682X]', 'criterion not met'),
  ('CNC(=O)Nc1ccc(-c2nc(N3CC4CCC(C3)O4)c3cnn(C4CCC5(CC4)OCCO5)c3n2)cc1', 'criterion met'),
  ('COc1cc(Nc2nccc(-c3cnn4nc(OC)ccc34)n2)cc(C(F)(F)F)c1', 'criterion met'),
  ('CCc1nn(CCCN2CCN(c3cccc(Cl)c3)CC2)c(=O)n1CCOc1ccccc1.Cl [NEFAZODONE HYDROCHLORIDE]', 'criterion not met'),
  ('COC(=O)C1=C(C)NC(C)=C(C(=O)OCCCN2CCC(c3ccccc3)(c3ccccc3)CC2)[C@H]1c1cccc([N+](=O)[O-])c1 [NIGULDIPINE]', 'criterion not met'),
  ('CC(C)NC(=O)N1CC[C@H](NC2=Nc3cc(F)ccc3N(CC(F)F)c3ccc(Cl)cc32)C1', 'criterion met'),
  ('CC1=C(C(=O)Nc2cc3cn[nH]c3cc2F)C(c2ccc(C(F)(F)F)cc2)CC(=O)N1 (stereo not drawn)', 'criterion met'),
  ('O=c1cc(N2CCOCC2)oc2c(-c3cccc4c3sc3ccccc34)cccc12', 'criterion not met'),
  ('CN1CCN(Cc2ccc(Nc3ncc(Cl)c(Nc4ccccc4S(=O)(=O)N(C)C)n3)cc2)CC1 [DUBERMATINIB]', 'criterion not met'),
  ('COc1ccc(-c2ccc3ncc4c(c3c2)n(-c2ccc(N3CCNCC3)c(C(F)(F)F)c2)c(=O)n4C)cn1.O=C(O)/C=C\C(=O)O [BGT-226]', 'criterion not met');

====

System: Fibroblast
PROTOCOL DESCRIPTION: Multiplex assay against human fibroblast
Assay type: toxicity, cell-based
SETTINGS: 12 h, 10 µM, compound concentration 10 uM, replicate 2
Population Healthy Nuclei (%) below 30% gives no (0); Population Healthy Nuclei (%) at or above it gives yes (1).

INSERT INTO assay_data (smiles_code, class_assignment) VALUES
  ('CC(C)c1noc(N2CCC(COc3ccc(-c4ccc(S(C)(=O)=O)cc4)nc3)CC2)n1', 'yes (1)'),
  ('COC(=O)C1=C(C)NC(C)=C(C(=O)OCCCN2CCC(c3ccccc3)(c3ccccc3)CC2)[C@H]1c1cccc([N+](=O)[O-])c1', 'no (0)'),
  ('CN1CCN(Cc2ccc(Nc3ncc(Cl)c(Nc4ccccc4S(=O)(=O)N(C)C)n3)cc2)CC1', 'yes (1)'),
  ('CNC(=O)Nc1ccc(-c2nc(N3CC4CCC(C3)O4)c3cnn(C4CCC5(CC4)OCCO5)c3n2)cc1', 'yes (1)'),
  ('Cc1nc(N2CC[C@H](O)C2)ncc1-c1cc(C(F)(F)F)cc2[nH]ncc12', 'no (0)'),
  ('C=CC(=O)Nc1ccc2[nH]c(=O)n(C3CCN(Cc4ccc(-c5nc6cc[nH]c(=O)c6cc5-c5ccccc5)cc4)CC3)c2c1', 'no (0)'),
  ('Cc1c[nH]c2nccc(Oc3c(F)cc(Nc4cc(Cl)nc(N)n4)cc3F)c12', 'yes (1)');

Source: ChEMBL document CHEMBL4689842
